From: ChEMBL document CHEMBL3751707

Assay: Toxicity in human RBC assessed as hemolysis at 512 ug/ml
Type: cell-based, Erythrocyte
Conditions: red blood cells, read-out: Activity
measured attribute: hemolysis at 512 ug/ml (%)
Write the value in % as a bare number.

Name the recorded hemolysis at 512 ug/ml of the molecule listed here: CC(Cc1ccc([Si](C)(C)C)cc1)CN1C[C@@H](C)O[C@@H](C)C1 (stereo partly specified)
7

----------
System: Cryptococcus neoformans
Assay: Antifungal activity against Cryptococcus neoformans ATCC 34664 after 24 to 36 hrs by broth microdilution method
Type: functional, organism-based
measured attribute: IC50 (µg/mL)
Supply the numeric figure in µg/mL, leaving out any unit text.

Tell me its IC50 given CCC(C)(C)c1ccc(CC(C)CN2CC[Si](C)(C)CC2)cc1 (stereo unspecified) as the entry.
1.4

Provide IC50 value for the following compound: CC(Cc1ccc([Si](C)(C)C)cc1)CN1CCOCC1 (stereo unspecified)
0.125

Kindly indicate its recorded IC50. Item: CC(Cc1ccc([Si](C)(C)C)cc1)CN1CCCCC1 (stereo unspecified)
0.0625

Give the reported IC50 for this compound. CC(Cc1ccc(C(C)(C)C)cc1)CN1C[C@@H](C)O[C@@H](C)C1 (stereo partly specified) [FENPROPIMORPH]
0.25

Return reported IC50. Input compound: CC(Cc1ccc([Si](C)(C)C)cc1)CN1CCC(O)CC1 (stereo unspecified)
0.93

Next up:
Check the records and state IC50 for CC(Cc1ccc([Si](C)(C)C)cc1)CN1CCCC1 (stereo unspecified)
0.25

----------
Test: Metabolic stability in human liver microsomes after 30 mins by LC-MS/MS analysis
Format: ADME
Details: read-out: Stability
Listed here are compounds together with their documented remaining at 0.5 h.
Hi! Could you send only the number? It should be in %, unit omitted.

Past entries and their recorded results:
Specify measured remaining at 0.5 h for CC(Cc1ccc([Si](C)(C)C)cc1)CN1CCOCC1 (centres undefined) .
26

Retrieve remaining at 0.5 h measured for CC(Cc1ccc([Si](C)(C)C)cc1)CN1C[C@@H](C)O[C@@H](C)C1 (some centres undefined) and print it.
27.3

State its remaining at 0.5 h for this compound: CC(Cc1ccc(C(C)(C)C)cc1)CN1CCCCC1 (centres undefined) [FENPROPIDIN]
34.4

Further cases:
Supply reported remaining at 0.5 h belonging to this compound: CC(Cc1ccc([Si](C)(C)C)cc1)CN1CC[Si](C)(C)CC1 (centres undefined)
44.5

----------
Assay: Metabolic stability in mouse liver microsomes after 30 mins by LC-MS/MS analysis
Format: ADME
Settings: read-out: Stability
Each entry below carries its recorded remaining at 0.5 h.
Could you give me the number in %? Just the number is fine.

Consider the following illustrative entries.
Tell me its remaining at 0.5 h given CC(Cc1ccc([Si](C)(C)C)cc1)CN1CCOCC1 (centres undefined) as the entry.
5.1

// fetch remaining at 0.5 h given entry CC(Cc1ccc([Si](C)(C)C)cc1)CN1CC[Si](C)(C)CC1 (centres undefined)
17.3

Return reported remaining at 0.5 h. Input molecule: CC(Cc1ccc([Si](C)(C)C)cc1)CN1C[C@@H](C)O[C@@H](C)C1 (some centres undefined)
6.2

Continue with the molecule presented below.
Write down remaining at 0.5 h measured for item CC(Cc1ccc(C(C)(C)C)cc1)CN1CCCCC1 (centres undefined) [FENPROPIDIN]
1.1
